Recorded NORMAL E[…] ACTIVITY MEAN by entry
system: erythrocytes; experiment: Normal erythrocyte enzyme activity (Table 3B); assay type: cell-based, human; settings: normal donors
Numbered stars: 1 amine (or outer) side, 2 acyl side, 3 side chain; on linkers, the order of the positions; unused ones are H or OH. Bridge positions count the residues as written; N and C are the ends. Peptide text beside a SMILES is read from it. I, II: the chains in the order shown. Rhodamine110 = O=C1OC2(c3ccc(N[*:1])cc3Oc3cc(N[*:2])ccc32)c2ccccc21
I only need the number, thanks.

# annotated cases, reported NORMAL E[…] ACTIVITY MEAN shown
molecule="CC(C)C[C@H](NC(=O)[C@@H]1CCCN1C(=O)CN)C(=O)NCC(=O)N1CCC[C@H]1C(=O)Nc1ccc2c(c1)Oc1cc(NC(=O)[C@@H]3CCCN3C(=O)CNC(=O)[C@H](CC(C)C)NC(=O)[C@@H]3CCCN3C(=O)CN)ccc1C21OC(=O)c2ccccc21 [GPLGP] (I: H-GPLGP / II: H-GPLGP; linker I:C-II:C via Rhodamine110)" numeric_result=0.164
molecule="N=C(N)NCCC[C@H](N)C(=O)NCC(=O)N[C@@H](CCC(=O)O)C(=O)N[C@@H](CO)C(=O)Nc1ccc2c(c1)Oc1cc(NC(=O)[C@H](CO)NC(=O)[C@H](CCC(=O)O)NC(=O)CNC(=O)[C@@H](N)CCCNC(=N)N)ccc1C21OC(=O)c2ccccc21 (stereo partly drawn) [RGES, (Arg-Gly-Glu-Ser)2 Rho 110] (I: H-RGES / II: H-RGES; linker I:C-II:C via Rhodamine110)" numeric_result=0.118
molecule="CC(C)C[C@H](NC(=O)CNC(=O)[C@@H](N)CC(C)C)C(=O)NCC(=O)Nc1ccc2c(c1)Oc1cc(NC(=O)CNC(=O)[C@H](CC(C)C)NC(=O)CNC(=O)[C@@H](N)CC(C)C)ccc1C21OC(=O)c2ccccc21 [LGLG, (H--L--Leu--Gly--Leu--Gly)2 Rho 110.2TFA] (I: H-LGLG / II: H-LGLG; linker I:C-II:C via Rhodamine110)" numeric_result=0.122
molecule="N=C(N)NCCC[C@H](NC(=O)OCc1ccccc1)C(=O)Nc1ccc2c(c1)Oc1cc(NC(=O)[C@H](CCCNC(=N)N)NC(=O)OCc3ccccc3)ccc1C21OC(=O)c2ccccc21 (stereo partly shown) [Z--ARG]" numeric_result=0.106
molecule="O=C1OC2(c3ccc(OC4O[C@H](CO)[C@@H](O)[C@H](O)[C@H]4O)cc3Oc3cc(OC4O[C@H](CO)[C@@H](O)[C@H](O)[C@H]4O)ccc32)c2ccccc21 (stereo partly shown) [DIGLUC (FL)]" numeric_result=0.110

**Q:** Find the recorded NORMAL E[…] ACTIVITY MEAN belonging to CC(=O)Oc1ccc2c(c1)Oc1cc(OC(C)=O)ccc1C21OC(=O)c2ccccc21 [FDA, fluorescein diacetate, reference compound] and report it.
**A:** 0.126

**Q:** Find the recorded NORMAL E[…] ACTIVITY MEAN belonging to O=C1OC2(c3ccc(OP(=O)(O)O)cc3Oc3cc(OP(=O)(O)O)ccc32)c2ccccc21 [DPO4, (PO4)2 fluorescein] and report it.
**A:** 0.151

* * *

Recorded NORMAL E[…] ACTIVITY MEAN by entry
System: erythrocytes
Experiment: Normal erythrocyte enzyme activity (Table 3B)
Format: cell-based, human
Conditions: normal donors
Procedure: A sample, consisting of whole blood (in EDTA, Heparin or ACD) or dissociated tissue or body fluids (synovial fluid) or cell culture media is obtained and stored in a manner so as not to decrease viability. The sample is washed sufficiently to remove plasma, media, body fluid, debris and extra-cellular enzymes. The wash media consists of a physiologically balanced buffered salt solution. […] At the end of the incubation period, the sample is then measured for fluorescence. […]
Numbered stars: 1 amine (or outer) side, 2 acyl side, 3 side chain; on linkers, the order of the positions; unused ones are H or OH. Bridge positions count the residues as written; N and C are the ends. Peptide text beside a SMILES is read from it. I, II: the chains in the order shown. Rhodamine110 = O=C1OC2(c3ccc(N[*:1])cc3Oc3cc(N[*:2])ccc32)c2ccccc21
I only need the number, thanks.

molecule="C[C@H](NC(=O)CNC(=O)[C@H](Cc1ccccc1)NC(=O)CN)C(=O)Nc1ccc2c(c1)Oc1cc(NC(=O)[C@H](C)NC(=O)CNC(=O)[C@H](Cc3ccccc3)NC(=O)CN)ccc1C21OC(=O)c2ccccc21 [GFGA, (Gly-Phe-Gly-Ala)2 Rho 110] (I: H-GFGA / II: H-GFGA; linker I:C-II:C via Rhodamine110)" experimental_target=erythrocytes numeric_result=0.131

# next molecule below
**Q:** Quick check: NORMAL E[…] ACTIVITY MEAN on erythrocytes, item CC(=O)Oc1ccc2c(c1)Oc1cc(OC(C)=O)ccc1C21OC(=O)c2ccccc21 [FDA--NAF, fluorescein diacetate, reference compound] ?
**A:** 0.136
